Measured cAMP EC50 (1.0% HSA), listed per entry.
# Subject Of Test: T1, human GIP receptor (human, UniProt P48546 22-466)
# T1 sequence (looked up): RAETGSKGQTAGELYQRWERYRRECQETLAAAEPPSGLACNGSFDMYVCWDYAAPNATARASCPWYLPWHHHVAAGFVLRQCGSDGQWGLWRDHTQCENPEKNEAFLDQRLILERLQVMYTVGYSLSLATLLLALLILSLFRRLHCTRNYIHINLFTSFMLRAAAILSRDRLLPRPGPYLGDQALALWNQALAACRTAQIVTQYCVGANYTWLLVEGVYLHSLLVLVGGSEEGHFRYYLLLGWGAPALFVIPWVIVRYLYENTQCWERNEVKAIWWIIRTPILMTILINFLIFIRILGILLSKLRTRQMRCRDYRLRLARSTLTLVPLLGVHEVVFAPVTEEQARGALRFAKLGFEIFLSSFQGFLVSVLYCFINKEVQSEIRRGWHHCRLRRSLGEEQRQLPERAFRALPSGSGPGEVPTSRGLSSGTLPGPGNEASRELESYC
# Experimental Details: cell-based or functional assay
Readout Kind: cAMP EC50 (1.0% HSA) (pM)

Binder: YXEGTXTSDYXIXLDXIAQXXFIKXLIKGGPSSGAPPPS (Y-Aib-EGT-αMeF(2F)-TSDY-Aib-I-αMeL-LD-Orn-IAQ-Aib-Orn-FIK((2-[2-(2-Amino-ethoxy)-ethoxy]-acetyl)2-(γ-Glu)-(10-(4-carboxyphenoxy)decanoyl))-αMeY-LIK((2-[2-(2-Amino-ethoxy)-ethoxy]-acetyl)2-(γ-Glu)-(10-(4-carboxyphenoxy)decanoyl))GGPSSGAPPPS-NH2) [Example 355]
Result: 1810
--
Binder: YXEGTXTSDXXIXLDXQAQXKFIXXLIKGGPSSGAPPPS (Y-Aib-EGT-αMeF(2F)-TSD-4Pal-Aib-I-αMeL-LD-Orn-QAQ-Aib-K((2-[2-(2-Amino-ethoxy)-ethoxy]-acetyl)2-(γ-Glu)-CO-(CH2)12-CO2H)FI-(D-Glu)-αMeY-LIK((2-[2-(2-Amino-ethoxy)-ethoxy]-acetyl)2-(γ-Glu)-CO-(CH2)12-CO2H)GGPSSGAPPPS-NH2) [Example 488]
Result: 718
--
Binder: YXEGTXTSDYXIXLDXIAQXEFIKXLIKGGPSSGAPPPS (Y-Aib-EGT-αMeF(2F)-TSDY-Aib-I-αMeL-LD-Orn-IAQ-Aib-EFIK((2-[2-(2-Amino-ethoxy)-ethoxy]-acetyl)-(γ-Glu)-(2-[2-(2-Amino-ethoxy)-ethoxy]-acetyl)2-CO-(CH2)12-CO2H)-αMeY-LIK((2-[2-(2-Amino-ethoxy)-ethoxy]-acetyl)-(γ-Glu)-(2-[2-(2-Amino-ethoxy)-ethoxy]-acetyl)2-CO-(CH2)12-CO2H)GGPSSGAPPPS-NH2) [Example 364]
Result: 895
